These entries and their values trace back to ChEMBL document CHEMBL1770126.

Target: Adenosine receptor A2a (Homo sapiens, UniProt P29274)
Sequence (P29274 whole entry): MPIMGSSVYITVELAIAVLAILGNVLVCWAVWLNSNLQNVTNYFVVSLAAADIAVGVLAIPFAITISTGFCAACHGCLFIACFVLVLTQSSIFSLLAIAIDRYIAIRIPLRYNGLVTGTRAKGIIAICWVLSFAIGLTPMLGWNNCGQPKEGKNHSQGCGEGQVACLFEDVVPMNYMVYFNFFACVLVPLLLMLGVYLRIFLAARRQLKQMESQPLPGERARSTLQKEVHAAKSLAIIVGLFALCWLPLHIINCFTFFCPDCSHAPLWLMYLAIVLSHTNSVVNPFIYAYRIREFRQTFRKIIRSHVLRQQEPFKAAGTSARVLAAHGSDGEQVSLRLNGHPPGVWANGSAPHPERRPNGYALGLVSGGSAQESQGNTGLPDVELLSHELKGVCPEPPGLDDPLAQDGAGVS
Assay: Displacement of [3H]CGS21680 from human recombinant adenosine A2A receptor expressed in HEK293 cells after 60 mins by liquid scintillation counting
pKi: −log10 of the molar value.
pKi values, listed per item

{"columns": ["molecule_smiles", "target_of_assay", "pKi"],
 "data": [
  ["Nc1nc2c(cnn2CCCc2ccc(OCC(=O)NCCNCCNC(=O)CCCCCNC(=O)COc3ccc(/C=C/C4=[N+]5C(=Cc6ccc(-c7ccc[nH]7)n6[B-]5(F)F)C=C4)cc3)cc2)c2nc(-c3ccco3)nn12", "Adenosine receptor A2a (Homo sapiens, UniProt P29274)", 7.82],
  ["COC(=O)COc1ccc(CCCn2ncc3c2nc(N)n2nc(-c4ccco4)nc32)cc1", "Adenosine receptor A2a (Homo sapiens, UniProt P29274)", 7.02],
  ["Nc1nc2c(cnn2CCCc2ccc(OCC(=O)O)cc2)c2nc(-c3ccco3)nn12", "Adenosine receptor A2a (Homo sapiens, UniProt P29274)", 7.99],
  ["Nc1nc2c(cnn2CCCc2ccc(OCCCF)cc2)c2nc(-c3ccco3)nn12", "Adenosine receptor A2a (Homo sapiens, UniProt P29274)", 7.27],
  ["C#CCCCCC(=O)NCCNC(=O)COc1ccc(CCCn2ncc3c2nc(N)n2nc(-c4ccco4)nc32)cc1", "Adenosine receptor A2a (Homo sapiens, UniProt P29274)", 7.12],
  ["CN(C)c1ccc2c(-c3ccc(C(=O)NCCNC(=O)COc4ccc(CCCn5ncc6c5nc(N)n5nc(-c7ccco7)nc65)cc4)cc3C(=O)[O-])c3ccc(=[N+](C)C)cc-3oc2c1", "Adenosine receptor A2a (Homo sapiens, UniProt P29274)", 6.45],
  ["NCCNC(=O)COc1ccc(CCCn2ncc3c2nc(N)n2nc(-c4ccco4)nc32)cc1", "Adenosine receptor A2a (Homo sapiens, UniProt P29274)", 8.17],
  ["CC(=O)NCCn1cc(CCCCC(=O)NCCNC(=O)COc2ccc(CCCn3ncc4c3nc(N)n3nc(-c5ccco5)nc43)cc2)nn1", "Adenosine receptor A2a (Homo sapiens, UniProt P29274)", 6.66],
  ["N=c1ccc2c(-c3ccc(C(=O)NCCNC(=O)COc4ccc(CCCn5ncc6c5nc(N)n5nc(-c7ccco7)nc65)cc4)cc3C(=O)O)c3ccc(N)c(S(=O)(=O)O)c3oc-2c1S(=O)(=O)O", "Adenosine receptor A2a (Homo sapiens, UniProt P29274)", 6.95],
  ["NCCNCCNC(=O)COc1ccc(CCCn2ncc3c2nc(N)n2nc(-c4ccco4)nc32)cc1", "Adenosine receptor A2a (Homo sapiens, UniProt P29274)", 7.97]
]}

###

Target: UniProtKB P0DMS8
Experiment: Displacement of [125I]I-AB-MECA from human recombinant adenosine A3 receptor expressed in CHO cells after 60 mins by gamma scintillation counting
measure_name: Ki (nM)

{"columns": ["molecule_smiles", "val"],
 "data": [
  ["NCCNC(=O)COc1ccc(CCCn2ncc3c2nc(N)n2nc(-c4ccco4)nc32)cc1", 3970],
  ["NCCNCCNC(=O)COc1ccc(CCCn2ncc3c2nc(N)n2nc(-c4ccco4)nc32)cc1", 3290],
  ["CC(=O)NCCn1cc(CCCCC(=O)NCCNC(=O)COc2ccc(CCCn3ncc4c3nc(N)n3nc(-c5ccco5)nc43)cc2)nn1", 302],
  ["C#CCCCCC(=O)NCCNC(=O)COc1ccc(CCCn2ncc3c2nc(N)n2nc(-c4ccco4)nc32)cc1", 1280],
  ["Nc1nc2c(cnn2CCCc2ccc(OCCCF)cc2)c2nc(-c3ccco3)nn12", 1320]
]}

###

Biological target: Adenosine receptor A1 (Homo sapiens)
Experiment: Displacement of [3H]DPCPX from human recombinant adenosine A1 receptor expressed in CHO cells at 10 uM after 60 mins by liquid scintillation counting
Type: cell-based
// reported inhibition per item

{"columns": ["molecule_smiles", "inhibition, %"],
 "data": [
  ["NCCNCCNC(=O)COc1ccc(CCCn2ncc3c2nc(N)n2nc(-c4ccco4)nc32)cc1", 20],
  ["COc1ccc(CCCn2ncc3c2nc(N)n2nc(-c4ccco4)nc32)cc1", 35],
  ["CN(C)c1ccc2c(-c3ccc(C(=O)NCCNC(=O)COc4ccc(CCCn5ncc6c5nc(N)n5nc(-c7ccco7)nc65)cc4)cc3C(=O)[O-])c3ccc(=[N+](C)C)cc-3oc2c1", 7],
  ["N=c1ccc2c(-c3ccc(C(=O)NCCNC(=O)COc4ccc(CCCn5ncc6c5nc(N)n5nc(-c7ccco7)nc65)cc4)cc3C(=O)O)c3ccc(N)c(S(=O)(=O)O)c3oc-2c1S(=O)(=O)O", 20]
]}

###

Molecular target: Adenosine receptor A3 (Homo sapiens) (UniProt P0DMS8)
Sequence (P0DMS8 whole entry): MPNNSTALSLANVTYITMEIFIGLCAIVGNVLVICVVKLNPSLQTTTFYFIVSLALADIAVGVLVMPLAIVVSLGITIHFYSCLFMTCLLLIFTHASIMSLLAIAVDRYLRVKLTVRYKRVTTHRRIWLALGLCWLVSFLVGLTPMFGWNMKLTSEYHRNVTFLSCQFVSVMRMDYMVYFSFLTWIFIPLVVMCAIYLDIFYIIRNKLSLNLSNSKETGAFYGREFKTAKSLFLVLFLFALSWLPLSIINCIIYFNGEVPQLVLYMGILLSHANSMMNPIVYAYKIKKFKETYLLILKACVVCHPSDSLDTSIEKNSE
Experiment: Displacement of [125I]I-AB-MECA from human recombinant adenosine A3 receptor expressed in CHO cells at 10 uM after 60 mins by gamma scintillation counting
Assay type: cell-based
# reported inhibition; entries follow
measure_name: inhibition (%)

{"columns": ["molecule_smiles", "u", "val"],
 "data": [
  ["Nc1nc2c(cnn2CCCc2ccc(OCC(=O)O)cc2)c2nc(-c3ccco3)nn12", "%", 29],
  ["CN(C)c1ccc2c(-c3ccc(C(=O)NCCNC(=O)COc4ccc(CCCn5ncc6c5nc(N)n5nc(-c7ccco7)nc65)cc4)cc3C(=O)[O-])c3ccc(=[N+](C)C)cc-3oc2c1", "%", 24],
  ["COC(=O)COc1ccc(CCCn2ncc3c2nc(N)n2nc(-c4ccco4)nc32)cc1", "%", 50],
  ["N=c1ccc2c(-c3ccc(C(=O)NCCNC(=O)COc4ccc(CCCn5ncc6c5nc(N)n5nc(-c7ccco7)nc65)cc4)cc3C(=O)O)c3ccc(N)c(S(=O)(=O)O)c3oc-2c1S(=O)(=O)O", "%", 4],
  ["Nc1nc2c(cnn2CCCc2ccc(OCC(=O)NCCNCCNC(=O)CCCCCNC(=O)COc3ccc(/C=C/C4=[N+]5C(=Cc6ccc(-c7ccc[nH]7)n6[B-]5(F)F)C=C4)cc3)cc2)c2nc(-c3ccco3)nn12", "%", 28]
]}

###

Target: Adenosine receptor A1 (Homo sapiens, UniProt P30542)
Sequence (P30542 whole entry): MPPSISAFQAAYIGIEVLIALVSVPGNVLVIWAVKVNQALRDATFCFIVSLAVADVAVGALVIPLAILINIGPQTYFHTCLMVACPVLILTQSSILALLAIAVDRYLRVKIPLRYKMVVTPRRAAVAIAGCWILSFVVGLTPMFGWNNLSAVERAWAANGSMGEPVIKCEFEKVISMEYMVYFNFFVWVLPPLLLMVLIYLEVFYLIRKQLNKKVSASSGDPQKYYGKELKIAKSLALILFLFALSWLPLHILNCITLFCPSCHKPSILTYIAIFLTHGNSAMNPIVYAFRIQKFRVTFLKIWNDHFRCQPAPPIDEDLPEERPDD
Experiment: Displacement of [3H]DPCPX from human recombinant adenosine A1 receptor expressed in CHO cells after 60 mins by liquid scintillation counting
pKi: −log10 of the molar value.
measure_name: pKi

{"columns": ["molecule_smiles", "val"],
 "data": [
  ["NCCNC(=O)COc1ccc(CCCn2ncc3c2nc(N)n2nc(-c4ccco4)nc32)cc1", 5.90],
  ["Nc1nc2c(cnn2CCCc2ccc(OCCCF)cc2)c2nc(-c3ccco3)nn12", 6.00],
  ["CC(=O)NCCn1cc(CCCCC(=O)NCCNC(=O)COc2ccc(CCCn3ncc4c3nc(N)n3nc(-c5ccco5)nc43)cc2)nn1", 5.77],
  ["Nc1nc2c(cnn2CCCc2ccc(O)cc2)c2nc(-c3ccco3)nn12", 5.35],
  ["C#CCCCCC(=O)NCCNC(=O)COc1ccc(CCCn2ncc3c2nc(N)n2nc(-c4ccco4)nc32)cc1", 5.96],
  ["COC(=O)COc1ccc(CCCn2ncc3c2nc(N)n2nc(-c4ccco4)nc32)cc1", 5.32],
  ["Nc1nc2c(cnn2CCCc2ccc(OCC(=O)O)cc2)c2nc(-c3ccco3)nn12", 5.77]
]}
